# TARGET_SYSTEM: UniProt:P00374
# ASSAY_NAME: Inhibition of recombinant human DHFR using dihydrofolate as substrate after 15 mins in presence of NADPH
Heads up, the class ranges for IC50 are low (below 3 µM), moderate (3 µM to below 5 µM), high (5 µM or more)

CPD_SMILES	QUALITATIVE_LABEL
Nc1nc(N)c2nc(/C=C/c3ccc(Br)cc3)ccc2n1	high
Cc1ccc(CCc2ccc3nc(N)nc(N)c3n2)cc1	low
COc1cccc(/C=C/c2ccc3nc(N)nc(N)c3n2)c1	moderate
Nc1nc(N)c2nc(/C=C/c3ccc(Cl)cc3)ccc2n1	high
Nc1nc(N)c2nc(CCc3ccc(Cl)cc3)ccc2n1	low
CC(C)c1ccc(CCc2ccc3nc(N)nc(N)c3n2)cc1	high
Nc1nc(N)c2nc(CCc3ccccc3)ccc2n1	low
COc1ccc(CCc2ccc3nc(N)nc(N)c3n2)cc1	low
CCc1ccc(CCc2ccc3nc(N)nc(N)c3n2)cc1	low
COc1ccc(/C=C/c2ccc3nc(N)nc(N)c3n2)cc1	moderate
Cc1ccc(/C=C/c2ccc3nc(N)nc(N)c3n2)cc1	moderate
Nc1nc(N)c2nc(/C=C/c3ccccc3)ccc2n1	high

* * *

# Test system: HeLa
# ASSAY_NAME: cells
# REPORTED_CONDITIONS: Homo sapiens, 48 h
# Description: Antiproliferative activity against human HeLa cells after 48 hrs by MTS assay
pIC50: −log10 of the molar value.
READOUT_KIND: pIC50

CPD_SMILES	MEASURED_NUMBER
Cc1ccc(/C=C/c2ccc3nc(N)nc(N)c3n2)cc1	4.84
Cc1ccc(CCc2ccc3nc(N)nc(N)c3n2)cc1	4.28
Nc1nc(N)c2nc(/C=C/c3ccc(Br)cc3)ccc2n1	5.04
COc1ccccc1/C=C/c1ccc2nc(N)nc(N)c2n1	4.86
Nc1nc(N)c2nc(CCc3ccc(F)cc3)ccc2n1	4.27
CC(C)c1ccc(/C=C/c2ccc3nc(N)nc(N)c3n2)cc1	4.98
Nc1nc(N)c2nc(CCc3ccc(Cl)cc3)ccc2n1	5.28
COc1ccc(CCc2ccc3nc(N)nc(N)c3n2)cc1	4.98
O=c1[nH]cc(F)c(=O)[nH]1	4.21
Nc1nc(N)c2nc(CCc3ccc(Br)cc3)ccc2n1	5.37
Nc1nc(N)c2nc(/C=C/c3ccc(F)cc3)ccc2n1	5.10
COc1cccc(/C=C/c2ccc3nc(N)nc(N)c3n2)c1	4.73
Nc1nc(N)c2nc(/C=C/c3ccc(Cl)cc3)ccc2n1	5.12
CCc1ccc(/C=C/c2ccc3nc(N)nc(N)c3n2)cc1	5.01
COc1ccc(/C=C/c2ccc3nc(N)nc(N)c3n2)cc1	5.19
COc1cc(CCc2ccc3nc(N)nc(N)c3n2)cc(OC)c1OC	5.54
Nc1nc(N)c2nc(CCc3ccccc3)ccc2n1	5.06
COc1cccc(CCc2ccc3nc(N)nc(N)c3n2)c1	4.84
COc1ccccc1CCc1ccc2nc(N)nc(N)c2n1	4.98
Nc1nc(N)c2nc(/C=C/c3ccccc3)ccc2n1	4.87
COc1cc(/C=C/c2ccc3nc(N)nc(N)c3n2)cc(OC)c1OC	5.68
CCc1ccc(CCc2ccc3nc(N)nc(N)c3n2)cc1	4.31
CC(C)c1ccc(CCc2ccc3nc(N)nc(N)c3n2)cc1	4.85

* * *

Readings of IC50 for the listed molecules
# TARGET_SYSTEM: Dihydrofolate reductase (Homo sapiens, UniProt P00374)
# Sequence (P00374 whole entry): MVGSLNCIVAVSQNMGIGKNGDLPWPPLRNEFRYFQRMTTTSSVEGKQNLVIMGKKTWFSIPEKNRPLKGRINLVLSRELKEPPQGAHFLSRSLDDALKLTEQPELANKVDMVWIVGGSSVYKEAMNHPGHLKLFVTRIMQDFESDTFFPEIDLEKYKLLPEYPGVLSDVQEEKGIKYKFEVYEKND
# ASSAY_NAME: Inhibition of recombinant human DHFR using dihydrofolate as substrate after 15 mins in presence of NADPH
READOUT_KIND: IC50 (nM)

CPD_SMILES	MEASURED_NUMBER
COc1cccc(CCc2ccc3nc(N)nc(N)c3n2)c1	450
Nc1nc(N)c2nc(/C=C/c3ccc(F)cc3)ccc2n1	4780
COc1ccccc1CCc1ccc2nc(N)nc(N)c2n1	1670
Nc1nc(N)c2nc(CCc3ccc(Br)cc3)ccc2n1	1260
COc1ccccc1/C=C/c1ccc2nc(N)nc(N)c2n1	3610
COc1cc(CCc2ccc3nc(N)nc(N)c3n2)cc(OC)c1OC	290

* * *

# TARGET_SYSTEM: UniProt P00374
# ASSAY_NAME: Inhibition of recombinant human DHFR using dihydrofolate as substrate after 15 mins in presence of NADPH
pIC50: −log10 of the molar value.

CPD_SMILES	pIC50
Nc1nc(N)c2nc(CCc3ccc(F)cc3)ccc2n1	6.02
CC(C)c1ccc(/C=C/c2ccc3nc(N)nc(N)c3n2)cc1	4.70
CCc1ccc(/C=C/c2ccc3nc(N)nc(N)c3n2)cc1	5.28
COc1cc(/C=C/c2ccc3nc(N)nc(N)c3n2)cc(OC)c1OC	5.40
